These data points were gathered from ChEMBL document CHEMBL4513216.

# assay-procedure: Toxicity liver stage against HepG2, at 10uM
# Assay type: cell-based
# Design: test concentration 10 uM, cell line HepG2-A16-CD81EGFP
# study-conditions: human, HepG2-A16-CD81EGFP cells; read-out: INHIBITION
Listing: cytotoxicity at 10 µM of selected compounds
Respond with the bare value in %.

// known answers, use as guide
O=C(c1cncs1)N1CCOCC(Cc2ccccn2)C1 (stereo not given) | 0.105
Cc1n[nH]c(C2CN(C(=O)CCc3ccsc3)CCO2)n1 (stereo not given) | -5.15
CC(C)N(C)Cc1cnc2n1CCN(C(=O)Cc1ccsc1)C2 | -118
CCc1nc(N2CCC3(CCC(=O)N(Cc4ccncc4)C3)CC2)no1 | 7.1
CC(C)(C)c1nc(CN2CCCC2CCc2ccccc2)no1 (stereo not given) | -5.95
Cc1cccc(CN(Cc2ccccn2)S(=O)(=O)N(C)C(C)C)c1 | -5.02
O=C(N1CCOCC1)[C@@]12CCO[C@@H]1CCN(CCN1CCCCC1)C2 | -3.78
Cc1cnn(CCC(=O)N2CCN(c3ccc(C#N)cn3)CC2)c1 | -0.417

The compound listed as CC(C)C(=O)N1CCN(C(=O)N(C)C)CC2(CC(=O)N(C)C2)C1 (stereo not given) shows cytotoxicity at 10 µM equal to -21

The compound listed as COCC1c2nnn(C)c2CCN1C(=O)CCc1cccc(OC)c1 (stereo not given) shows cytotoxicity at 10 µM equal to -90.4

The compound listed as Cc1[nH]c(=O)[nH]c(=O)c1CN1CCCC(CCc2ccc(F)c(F)c2)C1 (stereo not given) shows cytotoxicity at 10 µM equal to 1.4

The compound listed as COc1cc(C2CC(=O)Oc3cc(C)[nH]c(=O)c32)ccc1O (stereo not given) shows cytotoxicity at 10 µM equal to -8.64

The compound listed as "O=C(CCN1C(=O)CCC1=O)Nc1ccc(Cl)cc1" shows cytotoxicity at 10 µM equal to -2.79

The compound listed as "Cc1cc(C)c(C(=O)N[C@H](C(N)=O)c2ccccc2)c(=O)[nH]1" shows cytotoxicity at 10 µM equal to -2.06

The compound listed as CN(Cc1ccccc1)CC(O)Cn1cnc2sccc2c1=O (stereo not given) shows cytotoxicity at 10 µM equal to -6.54

The compound listed as "Cc1ccc2cc(C3(O)CCN(C(=O)CN4CCCC4)CC3)ccc2n1" shows cytotoxicity at 10 µM equal to 2.57

###

Listing: cytotoxicity at 10 µM of selected molecules
# assay-procedure: Toxicity liver stage against HepG2, at 10uM
# Format: cell-based
# Set-up: test concentration 10 uM, cell line HepG2-A16-CD81EGFP
# study-conditions: human, HepG2-A16-CD81EGFP cells; read-out: INHIBITION
Respond with the bare value in %.

The molecule listed as "COCCN(CCOC)Cc1c(C)nc2ccccc2c1O" shows cytotoxicity at 10 µM equal to 2.08

The molecule listed as "Fc1ccc(-c2nnc(CN3CCn4c(nnc4C4CC4)C3)o2)cc1" shows cytotoxicity at 10 µM equal to 0.577

The molecule listed as "Cc1ccc(-c2noc([C@@H]3Cc4nc[nH]c4CN3)n2)cc1" shows cytotoxicity at 10 µM equal to 0.676

The molecule listed as O=C(COc1ccc(C(F)(F)F)cc1)N1CCOCC1c1ncon1 (stereo not given) shows cytotoxicity at 10 µM equal to -12.5

The molecule listed as Cc1c(C(=O)NC2CCCOC2)nnn1-c1ccc(Cl)cc1F (stereo not given) shows cytotoxicity at 10 µM equal to 8.55

###

Listing: cytotoxicity at 10 µM of selected molecules
# assay-procedure: Toxicity liver stage against HepG2, at 10uM
# Assay type: cell-based
# Set-up: test concentration 10 uM, cell line HepG2-A16-CD81EGFP
# study-conditions: human, HepG2-A16-CD81EGFP cells; read-out: INHIBITION
Respond with the bare value in %.

// known answers, use as guide
CS(=O)(=O)NCC1CCCN(C(=O)Nc2ccccc2Cl)C1 (stereo not drawn) | -9.73
CCn1nc(CC(C)C)cc1C(=O)NCCCN1CCOCC1 | 1.6

Kindly consider the entry below.
The molecule listed as c1ccc(-c2cnc(CNC3CCc4ncnn4C3)o2)cc1 (stereo not drawn) shows cytotoxicity at 10 µM equal to -3.78

###

# assay-procedure: Toxicity liver stage against HepG2, at 10uM
# Assay type: cell-based
# Design: test concentration 10 uM, cell line HepG2-A16-CD81EGFP
# study-conditions: human, HepG2-A16-CD81EGFP cells; read-out: INHIBITION
recorded-metric: cytotoxicity at 10 µM (%)
Respond with the bare value in %.

// known answers, use as guide
CC(C)OCCCNC(=O)c1ccc(-c2ccco2)[nH]c1=O | -4.45
O=C1COC2(CCN(Cc3ccncc3)CC2)CN1c1ccccc1 | -126
COc1ccc(NC(=O)CSc2ccc3nncn3n2)c(OC)c1 | 3.94

The compound listed as CCn1cc2c(n1)CN(Cc1sccc1C)CC2COCC1CC1 (stereo unspecified) shows cytotoxicity at 10 µM equal to -57.3

The compound listed as "CN(Cc1ccc2c(c1)OCCO2)C(=O)NCCc1cnn(C)c1" shows cytotoxicity at 10 µM equal to -9.12

The compound listed as "COc1ccc(-c2cc(C(=O)Nc3nc[nH]n3)[nH]n2)cc1" shows cytotoxicity at 10 µM equal to -12.1

The compound listed as Cc1cc(NC(=O)N2CCN(C)CC2C)n(Cc2ccccc2)n1 (stereo unspecified) shows cytotoxicity at 10 µM equal to 11.4

The compound listed as "N#Cc1ccsc1NC(=O)CCN1CCn2c(nnc2C2CC2)C1" shows cytotoxicity at 10 µM equal to -5.65

The compound listed as CC(C)COCC(NC(=O)c1cccnc1)c1ccco1 (stereo unspecified) shows cytotoxicity at 10 µM equal to -12.1

The compound listed as "CC(C)[C@H]1CN(C(=O)CO)C[C@@H]1N(C)C" shows cytotoxicity at 10 µM equal to 7.1

The compound listed as CC(C)Oc1cccc(C(O)CNC(=O)CCc2ccncc2)c1 (stereo unspecified) shows cytotoxicity at 10 µM equal to -3.82

The compound listed as Cc1ccc(CNC(=O)CN2CCOC(Cn3cncn3)C2)s1 (stereo unspecified) shows cytotoxicity at 10 µM equal to -8.45

The compound listed as "COc1ccccc1N1CCN(Cc2nccc(OC)c2OC)CC1=O" shows cytotoxicity at 10 µM equal to -4

The compound listed as "CN1CCC(c2cccc(NCc3ccncc3)n2)CC1" shows cytotoxicity at 10 µM equal to 6.08

The compound listed as "Clc1ccc(N2CCN(CCCN3CCCCC3)CC2)nc1" shows cytotoxicity at 10 µM equal to 0.563

The compound listed as Cc1nccn1-c1cc(CNC(=O)CC2CCCO2)ccn1 (stereo unspecified) shows cytotoxicity at 10 µM equal to 0.491

The compound listed as CC(Cc1ccccn1)N(C)C(=O)c1ncc[nH]1 (stereo unspecified) shows cytotoxicity at 10 µM equal to 3.04

The compound listed as "Cc1noc([C@@H]2C[C@H]3OCC[C@H]3N(S(C)(=O)=O)C2)n1" shows cytotoxicity at 10 µM equal to -9.67

The compound listed as Cc1ccc(O)c(CNC2CCc3nc(C)nn3C2)n1 (stereo unspecified) shows cytotoxicity at 10 µM equal to -1.08

###

# assay-procedure: Toxicity liver stage against HepG2, at 10uM
# Format: cell-based
# Design: test concentration 10 uM, cell line HepG2-A16-CD81EGFP
# study-conditions: human, HepG2-A16-CD81EGFP cells; read-out: INHIBITION
Listing: cytotoxicity at 10 µM of selected compounds
Respond with the bare value in %.

// known answers, use as guide
CC(C)(O)CCc1ccc(C(=O)N2CCN(CC(F)(F)F)CC2)cc1 | 6.16
CN(C)C(=O)N[C@@H]1CN(C2CCOCC2)[C@@H]2CCCO[C@@H]21 | -4.08
O=C(NCCNc1ncccn1)c1scnc1Cl | -3.11

The compound listed as CC(=O)NCCNC(=O)CN1CCCC1Cn1nc(C)nc1C (stereo not given) shows cytotoxicity at 10 µM equal to -1.26

The compound listed as "CC(C)n1nc2c(cc1=O)CN(Cc1nc3ccccc3o1)CC2" shows cytotoxicity at 10 µM equal to -2.19

###

# assay-procedure: Toxicity liver stage against HepG2, at 10uM
# Assay type: cell-based
# Set-up: test concentration 10 uM, cell line HepG2-A16-CD81EGFP
# study-conditions: human, HepG2-A16-CD81EGFP cells; read-out: INHIBITION
recorded-metric: cytotoxicity at 10 µM
Reply with the number and its unit after it.

// known answers, use as guide
CN(Cc1cccnc1)[C@@H]1CN(CC2CC2)[C@@H]2CCCO[C@H]12 | -1.48%
CN(C)C(=O)C1CCC2(CCN(C(=O)Nc3ccc(F)cc3)CC2)O1 (centres undefined) | -111%
CN1CCN(C(=O)Cc2ccc(S(=O)(=O)C(F)F)cc2)CC1 | 12%
CN(C)c1cc2c(nn1)CCN(C(=O)C1CCCc3ccccc31)C2 (centres undefined) | -8.57%
Cn1cc(-c2csc(CN3CCOCC3)n2)cn1 | -11.4%

The molecule listed as "Cc1cnc(NCc2cnn(C)c2)nc1-c1cnn(C)c1" shows cytotoxicity at 10 µM equal to 52.1%

The molecule listed as "Cn1nc2c(cc1=O)CN(Cc1nc3ccccc3c(=O)[nH]1)CC2" shows cytotoxicity at 10 µM equal to -7.64%

The molecule listed as "COc1cc(CNC(=O)Nc2nnc(C(F)(F)F)s2)ccc1O" shows cytotoxicity at 10 µM equal to -2.83%

The molecule listed as "Cc1nn(C)c(N2CCCN(C)CC2)c1CNC(=O)C(C)(C)C" shows cytotoxicity at 10 µM equal to -12%
